Reference source for all entries: patent US8735071B2

tested on: Gadd45b expression; assay: Gadd45b expression in cultured primary hippocampal neurons by Q-PCR; type: cell-based, mice; conditions: pretreated 0.5 hr, then K^+ (50 mM) for 1 hr; BAPTA 50 μM, Nimodipin 10 μM, KN93 or KN92 10 μM; FIG. 5B
readout.kind: K^+-induced Gadd45b expression

1. COCCOC(=O)C1=C(C)NC(C)=C(C(=O)OC(C)C)C1c1cccc([N+](=O)[O-])c1 (stereo not shown) [Nimodipin] :: abolished
2. O=C(O)CN(CC(=O)O)c1ccccc1OCCOc1ccccc1N(CC(=O)O)CC(=O)O [BAPTA] :: abolished
3. COc1ccc(S(=O)(=O)N(CCO)c2ccccc2CN(C)C/C=C/c2ccc(Cl)cc2)cc1 [KN93] :: abolished
4. COc1ccc(S(=O)(=O)Nc2ccccc2CN(C)C/C=C/c2ccc(Cl)cc2)cc1 [KN92] :: not
